Biological target: kynurenine 3-hydroxylase (Rattus norvegicus, UniProt O88867)
Construct: incubating 10 μL of the homogenate with NADPH (2 mM), kynurenine (100 μM); from tissue; host or cells: rat liver (pellet of the homogenate, resuspended)
Sequence (O88867 whole entry): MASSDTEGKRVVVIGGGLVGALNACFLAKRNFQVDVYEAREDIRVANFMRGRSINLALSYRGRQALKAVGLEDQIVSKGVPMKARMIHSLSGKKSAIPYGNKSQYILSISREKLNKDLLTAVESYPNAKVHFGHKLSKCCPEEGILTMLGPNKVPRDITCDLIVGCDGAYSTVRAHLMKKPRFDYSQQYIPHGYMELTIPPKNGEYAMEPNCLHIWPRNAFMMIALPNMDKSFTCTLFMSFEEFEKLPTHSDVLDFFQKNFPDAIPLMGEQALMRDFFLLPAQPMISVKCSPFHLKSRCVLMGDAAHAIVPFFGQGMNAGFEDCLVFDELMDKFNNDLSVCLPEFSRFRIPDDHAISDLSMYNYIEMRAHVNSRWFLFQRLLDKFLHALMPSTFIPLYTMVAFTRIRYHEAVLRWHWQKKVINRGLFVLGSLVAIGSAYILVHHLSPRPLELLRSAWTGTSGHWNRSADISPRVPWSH
Experiment: Inhibitory activity on kynurenine 3-hydroxylase in rat liver homogenate
Assay type: biochemical
Conditions: test concentration not given
Items are presented alongside their recorded Remaining kynurenine 3-hydroxylase activity (% of control).
quantityName: Remaining kynurenine 3-hydroxylase activity (% of control) (%)

>  <molecule>
O=C(CC(Sc1ccccc1)C(=O)O)c1ccc(Cl)cc1 (stereo not drawn) [Ih-25]

>  <system>
kynurenine 3-hydroxylase (Rattus norvegicus, UniProt O88867)

>  <uom>
%

>  <numericValue>
67.6

$$$$
>  <molecule>
COc1ccc(SC(CC(=O)c2ccc(OC)cc2)C(=O)O)cc1 (stereo not drawn) [Ih-21]

>  <system>
kynurenine 3-hydroxylase (Rattus norvegicus, UniProt O88867)

>  <uom>
%

>  <numericValue>
17.4

$$$$
>  <molecule>
O=C(CC(SC1CCCCC1)C(=O)O)c1ccccc1 (stereo not drawn) [Ih-7]

>  <system>
kynurenine 3-hydroxylase (Rattus norvegicus, UniProt O88867)

>  <uom>
%

>  <numericValue>
81.3

$$$$
>  <molecule>
COc1ccc(C(=O)CC(SCc2ccccc2)C(=O)O)cc1 (stereo not drawn) [Ih-24]

>  <system>
kynurenine 3-hydroxylase (Rattus norvegicus, UniProt O88867)

>  <uom>
%

>  <numericValue>
18.9

$$$$
>  <molecule>
Cc1ccc(SC(CC(=O)c2ccc(Cl)cc2)C(=O)O)cc1 (stereo not drawn) [Ih-28]

>  <system>
kynurenine 3-hydroxylase (Rattus norvegicus, UniProt O88867)

>  <uom>
%

>  <numericValue>
50.5

$$$$
>  <molecule>
Cc1ccc(SC(CC(=O)c2ccccc2)C(=O)O)cc1 (stereo not drawn) [Ih-5]

>  <system>
kynurenine 3-hydroxylase (Rattus norvegicus, UniProt O88867)

>  <uom>
%

>  <numericValue>
45.4

$$$$
>  <molecule>
CCOC(=O)C(CC(=O)c1ccccc1)Sc1ccc(Cl)cc1 (stereo not drawn) [Ih-11]

>  <system>
kynurenine 3-hydroxylase (Rattus norvegicus, UniProt O88867)

>  <uom>
%

>  <numericValue>
44.6

$$$$
>  <molecule>
CCOC(=O)C(CC(=O)c1ccccc1)SCc1ccccc1 (stereo not drawn) [Ih-16]

>  <system>
kynurenine 3-hydroxylase (Rattus norvegicus, UniProt O88867)

>  <uom>
%

>  <numericValue>
84.4

$$$$
>  <molecule>
COc1ccc(C(=O)CC(Sc2ccc(C)cc2)C(=O)O)cc1 (stereo not drawn) [Ih-20]

>  <system>
kynurenine 3-hydroxylase (Rattus norvegicus, UniProt O88867)

>  <uom>
%

>  <numericValue>
13.3

$$$$

----------
Biological target: kynurenine 3-hydroxylase (Rattus norvegicus)
Construct: incubating 10 μL of the homogenate with NADPH (2 mM), kynurenine (100 μM); from tissue; host or cells: rat liver (pellet of the homogenate, resuspended)
Experiment: Inhibitory activity on kynurenine 3-hydroxylase in rat liver homogenate
Type: biochemical
Conditions: test concentration not given
quantityName: Remaining kynurenine 3-hydroxylase activity (% of control) (%)

>  <compound>
O=C(CC(Sc1ccccc1)C(=O)O)c1ccccc1 (stereo not shown)

>  <system>
kynurenine 3-hydroxylase (Rattus norvegicus)

>  <numericValue>
70.4

$$$$
>  <compound>
CCOC(=O)C(CC(=O)c1ccccc1)Sc1ccc(C)cc1 (stereo not shown)

>  <system>
kynurenine 3-hydroxylase (Rattus norvegicus)

>  <numericValue>
63.3

$$$$
>  <compound>
COc1ccc(C(=O)CC(Sc2ccc(Cl)cc2)C(=O)O)cc1 (stereo not shown)

>  <system>
kynurenine 3-hydroxylase (Rattus norvegicus)

>  <numericValue>
4.1

$$$$
>  <compound>
CCOC(=O)C(CC(=O)c1ccccc1)Sc1ccc(OC)cc1 (stereo not shown)

>  <system>
kynurenine 3-hydroxylase (Rattus norvegicus)

>  <numericValue>
55.2

$$$$
>  <compound>
COc1ccc(C(=O)CC(Sc2ccc(F)cc2)C(=O)O)cc1 (stereo not shown)

>  <system>
kynurenine 3-hydroxylase (Rattus norvegicus)

>  <numericValue>
6.6

$$$$
>  <compound>
CCOC(=O)C(CC(=O)c1ccccc1)Sc1ccc(F)cc1 (stereo not shown)

>  <system>
kynurenine 3-hydroxylase (Rattus norvegicus)

>  <numericValue>
66.7

$$$$
>  <compound>
O=C(CC(Sc1ccc(Cl)cc1)C(=O)O)c1ccc(Cl)cc1 (stereo not shown)

>  <system>
kynurenine 3-hydroxylase (Rattus norvegicus)

>  <numericValue>
34.9

$$$$
>  <compound>
COc1ccc(C(=O)CC(Sc2ccccc2)C(=O)O)cc1 (stereo not shown)

>  <system>
kynurenine 3-hydroxylase (Rattus norvegicus)

>  <numericValue>
16.0

$$$$
>  <compound>
O=C(CC(Sc1ccc(F)cc1)C(=O)O)c1ccc(Cl)cc1 (stereo not shown)

>  <system>
kynurenine 3-hydroxylase (Rattus norvegicus)

>  <numericValue>
55.5

$$$$
>  <compound>
CCOC(=O)C(CC(=O)c1ccccc1)Sc1ccccc1 (stereo not shown)

>  <system>
kynurenine 3-hydroxylase (Rattus norvegicus)

>  <numericValue>
80.8

$$$$
